Reference for the values: PubChem BioAssay (NCATS)

method_summary: SDT Cancer Cell Toxicity qHTS against the NCATS CANVASS Library (AID 1347365); also: nearly all actives have a fitted effect of over 60% in size
condition_parameters: SDT dog glioma viability, ATP luminescence, 72 h; series mostly up to 46.1 µM
Records with an inconclusive call do not appear. Active and inactive are the calls of the source. Calls follow the shape of the dose curve; as a rule, active = well fitted cell-killing curve with a large enough effect; inconclusive = small, poorly fitted or top-dose-only effect; inactive = flat fitted curve, though single readings scatter.
Hi! Could you answer with just one of these? active, inactive

input: // param item: C[C@H](CCC(O)C(C)(O)CO)[C@@]1(O)CC[C@@]2(C)C3=C(CC[C@@]21C)[C@@]1(C)CCC(OC(=O)CCC(=O)O)C(C)(C)[C@@H]1CC3 (some centres not stated) ; yields the recorded call
output: inactive

input: Next entry: CN1CCc2cc3c(c4c2C1(C)C(=O)c1cc(O)ccc1-4)OCO3 (configuration not stated)
output: active

input: Next compound: C/C(=C\CC[C@@H](C)[C@H]1CC[C@]2(C)C3=CCC4C(C)(C)[C@@H](O)C[C@@H](O)[C@]4(C)C3[C@H](O)C[C@@]12C)CO (some centres not stated)
output: inactive

input: How about `COc1ccc2[nH]c3c(c2c1)CCN1C[C@H]2C[C@@H](OC(=O)c4cc(OC)c(OC)c(OC)c4)[C@H](OC)[C@@H](OC)[C@H]2C[C@H]31` ?
output: active

input: What do we get for C=CC(CCCCC)C1C(=O)NC(=O)C1C(=O)C1C2C(C)CC(C(=O)O)CC2CC1(O)C(=O)/C=C/C (configuration not stated) ?
output: inactive

Continuing:
input: // return assay outcome for `C/C(=C\[C@H](C)C(=O)/C=C/CC1CC(=O)NC(=O)C1)[C@@H]1OC(=O)CCCC/C=C/[C@H](O)[C@@H](O)[C@@H]1C`
output: active

input: Same for `CN1CC[C@]23c4ccccc4N[C@H]1[C@]21CCN(C)[C@H]3Nc2ccccc21`
output: inactive
